tested on: Aβtotal; assay: Cellular αlisa assay in SKNBE2 cells, Aβtotal; format: cell-based, human; conditions: SKNBE2 cells expressing hAPP695, 18 hours incubation
Measured Cellular αlisa assay in SKNBE2 cells Aβtotal pIC50 of individual entries
Answer as a number with no unit attached.

Value lookup for Cellular αlisa assay in SKNBE2 cells Aβtotal pIC50; key = COCC1(c2cc(NC(=O)c3ccc(F)cn3)ccc2F)Cn2cc(C(F)(F)F)cc2C(N)=N1 (stereo not shown) [Compound 29]
6.33

Next: COc1cnc(C(=O)Nc2ccc(F)c(C3(C(F)F)Cn4cccc4C(N)=N3)c2)cn1 (single isomer, unassigned) [Compound 12]
7.9

Next: Cc1nc(C(=O)Nc2ccc(F)c([C@]3(C)Cn4cc(C(F)(F)F)cc4C(N)=N3)c2)co1
7.79

Next: COc1cnc(C(=O)Nc2ccc(F)c(C3(C(F)F)Cn4cccc4C(N)=N3)c2)cn1 (single isomer, unassigned) [Compound 13]
5.62

====

system: Aβtotal; experiment: Cellular αlisa assay in SKNBE2 cells, Aβtotal; type: cell-based, human; conditions: SKNBE2 cells expressing hAPP695, 18 hours incubation
readout: Cellular αlisa assay in SKNBE2 cells Aβtotal pIC50
Answer as a number with no unit attached.

[
  {
    "molecule": "COCC1(c2cc(NC(=O)c3cnc(OC)cn3)ccc2F)Cn2cc(C(F)(F)F)cc2C(N)=N1 (stereo not shown) [Compound 24]",
    "number": 6.35
  }
]

Value lookup for Cellular αlisa assay in SKNBE2 cells Aβtotal pIC50; key = COCC1(c2cc(NC(=O)c3ccc(F)cn3)ccc2F)Cn2cc(C(F)(F)F)cc2C(N)=N1 (stereo not shown) [Compound 25]
6.07

Next: COCC1(c2cc(NC(=O)c3cnc(OC)cn3)ccc2F)Cn2cc(C(F)(F)F)cc2C(N)=N1 (stereo not shown) [Compound 28]
6.52

Next: COCC1(c2cc(NC(=O)c3ccn(C(F)F)n3)ccc2F)Cn2cc(C(F)(F)F)cc2C(N)=N1 (single isomer, unassigned) [Compound 32]
6.53

====

biological target: BACE1 (Homo sapiens, UniProt P56817); assay: Biochemical FRET based assay; conditions: Biochemical FRET based assay pIC50, recombinant BACE1 1 μg/ml, 120 min, room temperature, pH 5.0
Sequence (P56817 46-501): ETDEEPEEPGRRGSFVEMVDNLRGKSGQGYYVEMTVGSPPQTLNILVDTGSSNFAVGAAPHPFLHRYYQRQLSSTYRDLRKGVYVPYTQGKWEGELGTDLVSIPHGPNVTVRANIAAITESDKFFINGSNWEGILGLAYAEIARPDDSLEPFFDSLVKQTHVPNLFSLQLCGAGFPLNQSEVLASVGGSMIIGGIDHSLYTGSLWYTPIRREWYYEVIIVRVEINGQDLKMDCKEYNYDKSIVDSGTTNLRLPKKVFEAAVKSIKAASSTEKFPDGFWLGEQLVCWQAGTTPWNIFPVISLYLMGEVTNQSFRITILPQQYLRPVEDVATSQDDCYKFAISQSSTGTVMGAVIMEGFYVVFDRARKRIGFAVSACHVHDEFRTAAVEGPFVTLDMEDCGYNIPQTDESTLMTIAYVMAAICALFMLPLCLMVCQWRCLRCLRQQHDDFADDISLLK
readout: log10 of IC50 (log10 of the value in nM)
// do not treat as linear: log10 of IC50, unit nM

Some solved cases for reference:
[
  {
    "compound": "COCC1(c2cc(NC(=O)c3cnc(OC)cn3)ccc2F)Cn2cc(C(F)(F)F)cc2C(N)=N1 (stereo not shown) [Compound 24]",
    "log10 of IC50": 3.50
  },
  {
    "compound": "CC1(c2cccc(-c3cncnc3)c2)Cn2cccc2C(N)=N1 (racemic)",
    "log10 of IC50": 4.08
  },
  {
    "compound": "Cc1nc(C(=O)Nc2ccc(F)c([C@]3(C)Cn4cc(C(F)(F)F)cc4C(N)=N3)c2)co1 [Compound 20]",
    "log10 of IC50": 2.01
  },
  {
    "compound": "CC1(c2cccc(NC(=O)c3ccc(Cl)cn3)c2)Cn2cccc2C(N)=N1 (racemic)",
    "log10 of IC50": 2.13
  },
  {
    "compound": "C[C@@]1(c2cc(NC(=O)c3ncc(C#N)cc3F)ccc2F)Cn2cc(C(F)(F)F)cc2C(N)=N1",
    "log10 of IC50": 1.56
  },
  {
    "compound": "Cc1nc(C(=O)Nc2ccc(F)c([C@]3(C)Cn4cc(F)cc4C(N)=N3)c2)c(C)o1",
    "log10 of IC50": 1.83
  }
]

Value lookup for log10 of IC50; key = C[C@@]1(c2cc(NC(=O)c3ccsn3)ccc2F)Cn2cc(C(F)(F)F)cc2C(N)=N1
2.35

Next: COc1cnc(C(=O)Nc2ccc(F)c([C@]3(C)Cn4cc(F)cc4C(N)=N3)c2)cn1
1.52

Next: COCC1(c2cc(NC(=O)c3ccc(F)cn3)ccc2F)Cn2cc(C(F)(F)F)cc2C(N)=N1 (stereo not shown) [Compound 30]
4.54

Next: COCC1(c2cc(NC(=O)c3ccn(C(F)F)n3)ccc2F)Cn2cc(C(F)(F)F)cc2C(N)=N1 (single isomer, unassigned) [Compound 32]
3.24

Next: COc1cnc(C(=O)Nc2ccc(F)c(C3(C(F)F)Cn4cccc4C(N)=N3)c2)cn1 (single isomer, unassigned) [Compound 12]
1.57

Next: COc1cnc(C(=O)Nc2ccc(F)c(C3(C(F)F)Cn4cccc4C(N)=N3)c2)cn1 (racemic) [Compound 11]
2.03

====

tested on: Aβtotal; test: Cellular αlisa assay in SKNBE2 cells, Aβtotal; assay type: cell-based, human; details: SKNBE2 cells expressing hAPP695, 18 hours incubation
readout: Cellular αlisa assay in SKNBE2 cells Aβtotal pIC50

Some solved cases for reference:
[
  {
    "compound": "COCC1(c2cc(NC(=O)c3ccn(C(F)F)n3)ccc2F)Cn2cc(C(F)(F)F)cc2C(N)=N1 (single isomer, unassigned) [Compound 31]",
    "result": "<5"
  },
  {
    "compound": "COCC1(c2cc(NC(=O)c3cnc(OC)cn3)ccc2F)Cn2cc(C(F)(F)F)cc2C(N)=N1 (stereo not drawn) [Compound 27]",
    "result": "<5"
  }
]

Value lookup for Cellular αlisa assay in SKNBE2 cells Aβtotal pIC50; key = COCC1(c2cc(NC(=O)c3ccc(F)cn3)ccc2F)Cn2cc(C(F)(F)F)cc2C(N)=N1 (stereo not drawn) [Compound 30]
<5

====

target: BACE1 (Homo sapiens); experiment: Biochemical FRET based assay; conditions: Biochemical FRET based assay pIC50, recombinant BACE1 1 μg/ml, 120 min, room temperature, pH 5.0
Label key: 1 means IC50 under 200 nM; 0 means IC50 of 200 nM or more.

[
  {
    "compound": "COCC1(c2cc(NC(=O)c3ccn(C(F)F)n3)ccc2F)Cn2cc(C(F)(F)F)cc2C(N)=N1 (single isomer, unassigned) [Compound 31]",
    "experimental.system": "BACE1 (Homo sapiens)",
    "category": 0
  },
  {
    "compound": "CC1(c2cccc(-c3cc(Cl)cc(Cl)c3)c2)Cn2cccc2C(N)=N1 (racemic)",
    "experimental.system": "BACE1 (Homo sapiens)",
    "category": 0
  },
  {
    "compound": "COCC1(c2cc(NC(=O)c3ccc(F)cn3)ccc2F)Cn2cc(C(F)(F)F)cc2C(N)=N1 (stereo not shown) [Compound 25]",
    "experimental.system": "BACE1 (Homo sapiens)",
    "category": 0
  },
  {
    "compound": "C[C@@]1(c2cc(NC(=O)c3ccc(Cl)cn3)ccc2F)Cn2cccc2C(N)=N1",
    "experimental.system": "BACE1 (Homo sapiens)",
    "category": 1
  },
  {
    "compound": "COCC1(c2cc(NC(=O)c3cnc(OC)cn3)ccc2F)Cn2cc(C(F)(F)F)cc2C(N)=N1 (stereo not shown) [Compound 27]",
    "experimental.system": "BACE1 (Homo sapiens)",
    "category": 0
  }
]

For this compound, is IC50 lower than 200 nM? C[C@@]1(c2cc(NC(=O)c3ccc(F)cn3)ccc2F)Cn2cc(F)cc2C(N)=N1
1

Next: Cc1nc(C(=O)Nc2ccc(F)c([C@]3(C)Cn4cc(C(F)(F)F)cc4C(N)=N3)c2)co1 [Compound 21]
1

Next: Cc1nc(C(=O)Nc2ccc(F)c([C@]3(C)Cn4cc(C(F)(F)F)cc4C(N)=N3)c2)c(C)o1
1

Next: COCC1(c2cc(NC(=O)c3ccn(C(F)F)n3)ccc2F)Cn2cc(C(F)(F)F)cc2C(N)=N1 (stereo not shown) [Compound 26]
0

Next: Cc1nc(C(=O)Nc2ccc(F)c([C@]3(C)Cn4cc(F)cc4C(N)=N3)c2)co1
1

Next: COc1cnc(C(=O)Nc2cccc(C3(C)Cn4cccc4C(N)=N3)c2)cn1 (racemic)
0

Next: Cc1nc(C(=O)Nc2ccc(F)c([C@]3(C)Cn4cc(F)cc4C(N)=N3)c2)c(C(F)(F)F)o1
1

Next: C[C@@]1(c2cc(NC(=O)c3ccn(C(F)F)n3)ccc2F)Cn2cc(C(F)(F)F)cc2C(N)=N1
1

Next: COc1cnc(C(=O)Nc2ccc(F)c(C3(C(F)F)Cn4cccc4C(N)=N3)c2)cn1 (single isomer, unassigned) [Compound 13]
0

====

target: BACE1 (Homo sapiens, UniProt P56817); assay: Biochemical FRET based assay; conditions: Biochemical FRET based assay pIC50, recombinant BACE1 1 μg/ml, 120 min, room temperature, pH 5.0
pIC50: −log10 of the molar value.
Classification field: true (1) = pIC50 at or over 6; false (0) = pIC50 under 6.

Check out these entries, answers already filled in.
[
  {
    "compound": "COCC1(c2cc(NC(=O)c3cnc(OC)cn3)ccc2F)Cn2cc(C(F)(F)F)cc2C(N)=N1 (centres unmarked) [Compound 28]",
    "category": "false (0)"
  },
  {
    "compound": "Cc1nc(C(=O)Nc2ccc(F)c([C@]3(C)Cn4cc(C(F)(F)F)cc4C(N)=N3)c2)c(C(F)(F)F)o1 [Compound 23]",
    "category": "true (1)"
  },
  {
    "compound": "COCC1(c2cc(NC(=O)c3ccc(F)cn3)ccc2F)Cn2cc(C(F)(F)F)cc2C(N)=N1 (centres unmarked) [Compound 29]",
    "category": "false (0)"
  },
  {
    "compound": "C[C@@]1(c2cc(NC(=O)c3ccc(C#N)cn3)ccc2F)Cn2cc(C(F)(F)F)cc2C(N)=N1 [Compound 9]",
    "category": "true (1)"
  }
]

Now examine the next entry.
Kindly determine if pIC50 recorded for NC1=NC(c2cc(NC(=O)c3ccc(F)cn3)ccc2F)(C(F)F)Cn2cccc21 (centres unmarked) [Compound 14] is above or exactly 6.
true (1)
